This section presents compounds with their documented pIC50 values.
System: L1210
Assay: Cytotoxicity against sensitive L1210 murine leukemia cells by MTT assay
Format: functional, cell-based, Mus musculus
Conditions: Mus musculus, L1210
pIC50: −log10 of the molar value.

Here's what some known entries look like.
# Compound, Tgt, pIC50
records = [
    ("C[N+](C)(C)C(CSCC(C#N)NC(=O)Nc1ccccc1)C(=O)[O-] (stereo not drawn)", "L1210", 4.13),
    ("N#CC1CN1 (stereo not drawn)", "L1210", "< 3.30"),
    ("O=C(O)C1CSC(C2CN2)=N1 (stereo not drawn)", "L1210", "< 3.30"),
    ("CNC(=O)N1CC1C1=NC(C(=O)O)CS1 (stereo not drawn)", "L1210", "< 3.30"),
    ("CC(=O)NC(CSCC1NC(=O)NC1=O)C(=O)O (stereo not drawn)", "L1210", 4.13),
]

**Q:** Request the reported pIC50 associated with CNC(=O)N1CC1C#N (stereo not drawn)
**A:** 4.60

**Q:** Follow-up item: N#CC1CN1C(N)=O (stereo not drawn)
**A:** < 3.30

**Q:** Same question, NC(=O)N1CC1C1=NC(C(=O)O)CS1 (stereo not drawn) this time
**A:** < 3.30

Source listed as ChEMBL document CHEMBL1146638.
